# Tested on: T1, EutQ (residues 1 to 229) (S. Typhimurium LT2, UniProt Q9ZFV5 1-229)
# T1 construct: About 25 kDa per monomer, about 50 kDa dimer by SEC-MALS; Uniformly 15N-labelled for NMR; also called full-length EutQ; WT EutQ; source: E. coli BL21 (DE3) star, purified (His-trap, SEC on S200 Superdex)
# T1 sequence: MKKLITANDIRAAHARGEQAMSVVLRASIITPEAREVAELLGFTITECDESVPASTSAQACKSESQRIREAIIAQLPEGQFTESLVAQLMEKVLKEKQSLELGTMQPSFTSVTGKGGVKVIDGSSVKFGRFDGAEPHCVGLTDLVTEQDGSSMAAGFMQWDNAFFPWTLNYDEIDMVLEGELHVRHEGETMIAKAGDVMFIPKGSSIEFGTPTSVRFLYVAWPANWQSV
# Protocol text: ITC; 20 μM protein in the cell, 200 to 400 μM peptide in the syringe; 19 injections, 25°C; 20 mM Na2HPO4, 20 mM NaCl, pH 6.5
# Conditions: both partners purified
Measured property: pKd
Answers are plain numbers, as −log10 of the molar value.

Report pKd for MDQKQIEEIVRSVMASMGQD (EutC of S. Typhimurium LT2, N-terminal encapsulation peptide, residues 1-20; also called EutC peptide; EP of EutC; source: synthetic peptide (GenicBio)) [EutC^1–20 encapsulation peptide] please.
5.20

Origin of values: paper PMC12487888
